- assay info: chemical genetic growth profiling, strain panel (AID 1159580);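 also: tested at 20 µM; growth read once vehicle control cultures reached saturation at 30 °C; 1 = growth at the plate median or of vehicle wells; lower values mean less growth of the strain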
- assay context: S. cerevisiae deletion strains, growth OD, locus YJL166W, strain qcr8, active compounds read low
Hit rate of the full screen: of about 5,500 compounds, about 2,000 (36%) were called active. Another 18% or so got no clear call; they are omitted. This is one part of the list.
Overview of recorded normalized growth for various molecules

>  <molecule>
C[C@]12CCC3C(CC[C@H]4C[C@@H](O)CC[C@]34C)C1CCC2=O (stereo partly specified)

>  <normalized growth>
0.877 (active)

$$$$
>  <molecule>
C[N+]1(C)CCc2cc3c(cc2[C@H]1C1OC(=O)c2c1ccc1c2OCO1)OCO3 (stereo partly specified)

>  <normalized growth>
1 (inactive)

$$$$
>  <molecule>
Cc1cc(C)nc(NS(=O)(=O)c2ccc(N)cc2)n1

>  <normalized growth>
1.01 (inactive)

$$$$
>  <molecule>
Fc1ccc(C(c2ccc(F)cc2)N2CCN(C/C=C/c3ccccc3)CC2)cc1

>  <normalized growth>
0.19 (active)

$$$$
>  <molecule>
CN1CCN(C(c2ccccc2)c2ccccc2)CC1

>  <normalized growth>
1.01 (inactive)

$$$$

Q) Would you kindly share the measured normalized growth for CC1=C2CCC3C(CC[C@]4(C)C(=O)CCC34)[C@@]2(C)CCC1=O (stereo partly specified) ?
A) 0.963 (inactive)
